Data credit: ChEMBL document CHEMBL1121688

Experiment: Concentration required (in vitro) to displace 50% specific binding of [3H]clozapine to sites in rat brain
pIC50: −log10 of the molar value.
Measured property: pIC50

> print(dat)
                             test.smiles  test.value
1  CN1CCN(C2=Nc3ccccc3Nc3ccc(Cl)cc32)CC1        7.77

====

Assay: Concentration required (in vitro) to displace 50% specific binding of [3H]clozapine to non-muscarinic sites in rat brain in presence of 1 uM atropine
Type: tissue-based
pIC50: −log10 of the molar value.
The following compounds are listed with their measured pIC50 values.
Measured property: pIC50

> print(dat)
                                   compound  rel  test.value
1     CC1CCN(C2=Cc3cc(Cl)ccc3Cc3ccccc32)CC1    <        5.00
2     CN1CCN(C2=Cc3ccccc3Cc3ccc(Cl)cc32)CC1    =        8.00
3  CN1CCN(C2=Nc3cc(Cl)ccc3N(C)c3ccccc32)CC1    =        7.06
4         CN1CCN(C2=Cc3ccccc3Cc3ccccc32)CC1    =        8.43
5     CN1CCN(C2=Cc3cc(Cl)ccc3Cc3ccccc32)CC1    =        7.89
6  CN1CCN(C2=Nc3cc(Cl)ccc3Oc3ccccc32)CC1 [ISOLOXAPINE]    =        7.42
7  CN1CCN(C2=Nc3cc(Cl)ccc3Nc3ccccc32)CC1 [CLOZAPINE]    =        7.89
8     CC1CCN(C2=Cc3ccccc3Cc3ccc(Cl)cc32)CC1    <        5.00
9     CN1CCC(C2=Cc3cc(Cl)ccc3Cc3ccccc32)CC1    =        8.15

====

Molecular target: Muscarinic acetylcholine receptor
Assay: Concentration required (in vitro) to displace 50% specific binding of [3H]clozapine to Muscarinic acetylcholine receptor in rat brain
Assay type: tissue-based
Lab note: anything with IC50 below 0.3 µM is marked 1.0; values at 0.3 µM or higher are marked 0.0.

> print(dat)
                                   molecule                        system.name  answer.label
1  CN1CCN(C2=Nc3cc(Cl)ccc3Oc3ccccc32)CC1 [ISOLOXAPINE]  Muscarinic acetylcholine receptor           1.0
2     CN1CCN(C2=Cc3ccccc3Cc3ccc(Cl)cc32)CC1  Muscarinic acetylcholine receptor           1.0
3     CN1CCN(C2=Cc3cc(Cl)ccc3Cc3ccccc32)CC1  Muscarinic acetylcholine receptor           0.0
4     CC1CCN(C2=Cc3ccccc3Cc3ccc(Cl)cc32)CC1  Muscarinic acetylcholine receptor           0.0
5     CC1CCN(C2=Cc3cc(Cl)ccc3Cc3ccccc32)CC1  Muscarinic acetylcholine receptor           0.0
6         CN1CCN(C2=Cc3ccccc3Cc3ccccc32)CC1  Muscarinic acetylcholine receptor           0.0
7  CN1CCN(C2=Nc3cc(Cl)ccc3N(C)c3ccccc32)CC1  Muscarinic acetylcholine receptor           1.0
8     CN1CCC(C2=Cc3cc(Cl)ccc3Cc3ccccc32)CC1  Muscarinic acetylcholine receptor           0.0

====

Target: Dopamine receptor
Test: Relative affinity for dopamine receptor by displacement of [3H]spiroperidol (2.2 nM) from (in vitro) dopamine binding sites in rat caudate nuclei
The following molecules are listed with their measured IC50 values.
Measured property: IC50

> print(dat)
                             test.smiles  test.value
1  CN1CCN(C2=Nc3cc(Cl)ccc3Oc3ccccc32)CC1     2.48 µM
2  CN1CCN(C2=Cc3cc(Cl)ccc3Cc3ccccc32)CC1    0.342 µM
3  CC1CCN(C2=Cc3cc(Cl)ccc3Cc3ccccc32)CC1     > 10 µM
